TARGET_DESC: UniProtKB P50993
ASSAY_PROCEDURE: biochemical
Assay type: biochemical

MOLECULE	Selectivity Ki ratio α1β1/α2β1
CC1CN(CS(C)(=O)=O)CCC(O[C@@H]2C(C)O[C@@H](OC3C(C)OC(O[C@H]4CC[C@@]5(C)C(CCC6C5CC(O)[C@]5(C)[C@@H](C7=CC(=O)OC7)CC[C@]65O)C4)C[C@@H]3O)C[C@@H]2O)O1 (stereo in doubt)	6.9
CC1CN(CC(F)(F)F)CCC(O[C@@H]2[C@H](C)O[C@@H](O[C@@H]3[C@H](C)O[C@@H](O[C@H]4CC[C@@]5(C)C(CCC6C5C[C@H](O)[C@]5(C)[C@@H](C7=CC(=O)OC7)CC[C@]65O)C4)C[C@@H]3O)C[C@@H]2O)O1 (stereo partly drawn)	4.1
CC1CN(C(C)C)CCC(O[C@@H]2[C@H](C)O[C@@H](O[C@@H]3[C@H](C)O[C@@H](O[C@H]4CC[C@@]5(C)C(CCC6C5C[C@H](O)[C@]5(C)[C@@H](C7=CC(=O)OC7)CC[C@]65O)C4)C[C@@H]3O)C[C@@H]2O)O1 (stereo partly drawn)	5.1
CCCN1CCC(O[C@@H]2[C@H](C)O[C@@H](O[C@@H]3[C@H](C)O[C@@H](O[C@H]4CC[C@@]5(C)C(CCC6C5C[C@H](O)[C@]5(C)[C@@H](C7=CC(=O)OC7)CC[C@]65O)C4)C[C@@H]3O)C[C@@H]2O)OC(C)C1 (stereo partly drawn)	4.8
CC1CN(C2CC2)CCC(O[C@@H]2C(C)O[C@@H](O[C@@H]3C(C)O[C@@H](O[C@H]4CC[C@@]5(C)C(CCC6C5CC(O)[C@]5(C)[C@@H](C7=CC(=O)OC7)CC[C@]65O)C4)C[C@@H]3O)C[C@@H]2O)O1 (stereo in doubt)	7.5
CC1CN(CC2CC2)CCC(O[C@@H]2C(C)O[C@@H](O[C@@H]3C(C)O[C@@H](O[C@H]4CC[C@@]5(C)C(CCC6C5CC(O)[C@]5(C)[C@@H](C7=CC(=O)OC7)CC[C@]65O)C4)C[C@@H]3O)C[C@@H]2O)O1 (stereo in doubt)	5.2
CC1CN(C[Si](C)(C)C)CCC(OC2C(O)CC(OC3C(O)CC(OC4CCC5(C)C(CCC6C5CC(O)C5(C)C(C7=CC(=O)OC7)CCC65O)C4)OC3C)OC2C)O1 (stereo not drawn)	3
CC1CN(CCS(N)(=O)=O)CCC(O[C@@H]2C(C)O[C@@H](OC3C(C)OC(O[C@H]4CC[C@@]5(C)C(CCC6C5CC(O)[C@]5(C)[C@@H](C7=CC(=O)OC7)CC[C@]65O)C4)C[C@@H]3O)C[C@@H]2O)O1 (stereo in doubt)	7.7
CC1CN(CCS(C)(=O)=O)CCC(O[C@@H]2C(C)O[C@@H](OC3C(C)OC(O[C@H]4CC[C@@]5(C)C(CCC6C5CC(O)[C@]5(C)[C@@H](C7=CC(=O)OC7)CC[C@]65O)C4)C[C@@H]3O)C[C@@H]2O)O1 (stereo in doubt)	9.4

* * *

TARGET_DESC: human Na,K-ATPase α2β3FXYD1 (Homo sapiens (Human), UniProt P50993)
ASSAY_PROCEDURE: biochemical
Format: biochemical
PARTICULARS: read-out: apparent vanadate affinity (Ki vanadate) α2β3
ASSAY_READOUT: Ki

                                   molecule  assay_readout  reported
0  [O]=[V]([OH])([OH])[OH] [vanadate, reference compound]             Ki     19 µM
